test system: HCC 2998; test: NCI tumour cell line growth inhibition, 48 h
Calls of active or inactive are those of the source. Cut-off read from the data, not from the text of the source: active = GI50 up to about 1.1 µM and inactive = higher.
// one of active, inactive, no free text

Solved cases below.
{"columns": ["MOLECULE", "LABEL"],
 "data": [
  ["CC(=O)Nc1cc(/C=C\\C(=O)N2CC(CCl)c3c2cc(N)c2ccccc32)n(C)n1 (stereo unspecified)", "active"],
  ["CCCOP(=O)(OCCC)OC(C(F)(F)F)C(F)(F)F", "inactive"],
  ["CC(C)OC(=O)c1cc(NC(=S)OC(C)C)ccc1Cl", "inactive"],
  ["C=C(Cl)COC(=O)Nc1cccc(Cl)c1", "inactive"],
  ["O=c1[nH]nc(-c2ccccc2)n1/N=C/c1c(O)ccc2ccccc12", "inactive"],
  ["CC(C)S(=O)(=O)ON1C(=O)c2ccc(N(C)C)cc2C1=O", "inactive"],
  ["Cn1c(=O)c2nc3sc4ccccc4c(=N)n3c2n(C)c1=O", "inactive"],
  ["c1ccc(C2=Nn3c(CCCCCCCCc4nnc5n4N=C(c4ccccc4)CS5)nnc3SC2)cc1", "inactive"]
]}

Incoming: Per the records of this test, what outcome belongs to NC(=O)N/N=C1\CC2C3CC4C2C4C13 (stereo unspecified) ?
Outgoing: inactive

Incoming: Per the records of this test, what outcome belongs to N=c1ccn2c(n1)OC1C(OP(=O)(O)O)C(CO)OC12 (stereo unspecified) ?
Outgoing: inactive

Incoming: Per the records of this test, what outcome belongs to O=C(CCN1CCOCC1)Nc1ccc2sc3ccccc3c(=O)c2n1 ?
Outgoing: inactive

* * *

tested on: HCT-116; assay: NCI tumour cell line growth inhibition, 48 h
The source made the active and inactive calls. Rule as the data show it: active = GI50 up to about 1.1 µM and inactive = higher.
// one of 1 (yes) = active, 0 (no) = inactive, no free text

Solved cases below.
{"columns": ["COMPOUND", "LABEL"],
 "data": [
  ["[N-]=[N+]=C(C(=O)N1CCCC1=O)S(=O)(=O)c1ccccc1", "0 (no)"],
  ["CC1(n2nc(-c3ccccc3)n(-c3ccccc3)c2=O)CSC1", "0 (no)"],
  ["O=C(OCc1ccccc1CN1CCOCC1)c1ccc(Br)cc1", "0 (no)"],
  ["NC1(c2cc3ccccc3s2)CCCC1", "0 (no)"],
  ["CCOC(=O)C(/C(=N\\NC(=O)OC)C(=O)Nc1cc(OC)ccc1OC)c1cnc2ccccc2n1 (stereo not given)", "0 (no)"],
  ["CSc1cccc(-n2c3nc(=O)n(C)c(=O)c-3nc3ccccc32)c1", "0 (no)"],
  ["CC(=O)Nc1cc(/C=C\\C(=O)N2CC(CCl)c3c2cc(N)c2ccccc32)n(C)n1 (stereo not given)", "1 (yes)"],
  ["CCOC(OC1=C(C#N)CCCC1)C(CC)[Se]c1ccccc1[N+](=O)[O-] (stereo not given)", "0 (no)"],
  ["CC(C)=CCCC1(C)C=Cc2c(c(C)cc3c2[nH]c2cc(O)ccc23)O1 (stereo not given)", "0 (no)"],
  ["C[C@@H]1OC(=O)C[C@H]2CC(=O)N(CCC3CN(C(=O)c4ccccc4)c4ccccc43)C[C@@H]21 (stereo not given in full)", "0 (no)"]
]}

Incoming: Per the records of this test, what outcome belongs to CC(C)(C)C(=O)/C=C/c1ccc(Oc2ccccc2)cc1 ?
Outgoing: 0 (no)

Incoming: Per the records of this test, what outcome belongs to CCCOP(=O)(OCCC)OC(C(F)(F)F)C(F)(F)F ?
Outgoing: 0 (no)
